Reference for the values: patent US20200087408A1

# TARGET_DESC: T1, human IL-36R (on cells) (human, UniProt Q9HB29 20-575)
# T1 sequence (looked up): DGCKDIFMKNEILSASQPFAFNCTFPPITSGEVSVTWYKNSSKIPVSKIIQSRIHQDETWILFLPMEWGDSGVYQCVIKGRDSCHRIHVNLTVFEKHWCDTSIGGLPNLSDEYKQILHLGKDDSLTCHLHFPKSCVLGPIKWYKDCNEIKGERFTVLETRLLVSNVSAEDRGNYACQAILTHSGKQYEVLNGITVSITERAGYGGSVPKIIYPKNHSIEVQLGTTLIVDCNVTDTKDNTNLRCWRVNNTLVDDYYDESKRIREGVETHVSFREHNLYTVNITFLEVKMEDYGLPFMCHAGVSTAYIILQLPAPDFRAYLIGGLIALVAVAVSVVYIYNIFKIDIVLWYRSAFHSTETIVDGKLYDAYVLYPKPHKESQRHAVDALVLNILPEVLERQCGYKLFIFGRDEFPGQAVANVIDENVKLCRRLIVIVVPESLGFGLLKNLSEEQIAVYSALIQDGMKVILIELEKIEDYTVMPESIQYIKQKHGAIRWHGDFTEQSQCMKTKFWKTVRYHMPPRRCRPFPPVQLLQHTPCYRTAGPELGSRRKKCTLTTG
# METHOD_DESCRIPTION: cell-based or functional assay
Record form. Attribute: EC50 (nM), HEK human IL-36R IL-8 luciferase reporter assay, 200 ng/ml hIL-36γ. Fill in for each entry.
Give bare numbers, in nM.

Sample records with EC50 (nM), HEK human IL-36R IL-8 luciferase reporter assay, 200 ng/ml hIL-36γ:
BINDER	UNIT_SPEC	MEASURED_NUMBER
Chimeric 18D4 (APE3847) (antibody, V domains shown) VH: DVQFQESGPGLVKPSQSLSLTCTVTGYSITSDFAWNWIRQFPGNKLEWMGYISYSGDTNYNPSLKSRISITRDTSKNQFFLQLNSVTTEDTATYFCAIRGPYSFTYWGPGTLVTVSS VL: DIQMTQTTSSLSASLGDRVTINCRASQDINNYLNWYQQKPDGTIRLLIYYTSRLHSGVPSRFSPNGSGTDYSLTINNLEQEDIATYFCQQGHTLPWTFGGGTKLEIK	nM	3.6
Chimeric 1D9 (APE3798) (antibody, V domains shown) VH: QVQLQQSGPELVKPGALVKISCKASGFTFTSYDINWVRQRPGQGLEWIGWIYPGDGSTKYNEKFKGKATLTADKSSSTAYMQLSSLTSENSAVYFCTRSFYTMDYWGQGTSVTVSS VL: DIVMTQAAPSVPVTPGESVSISCRSSKSLLHSNGNTYLYWFLQRPGQSPQLLISRMSNLASGVPDRFSGSGSGTAFTLRISRVEAEDVGVYYCMQHLEYPFTFGSGTKLEIK	nM	0.093

Now, please, on to the next binder.
Please give the documented EC50 (nM), HEK human IL-36R IL-8 luciferase reporter assay, 200 ng/ml hIL-36γ of Hzd 5D3 (APE6060) (antibody, V domains shown, also called 5D3 Humanized) VH: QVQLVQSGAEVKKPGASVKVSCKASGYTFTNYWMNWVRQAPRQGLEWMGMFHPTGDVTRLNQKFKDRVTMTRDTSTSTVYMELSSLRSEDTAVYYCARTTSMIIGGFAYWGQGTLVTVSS VL: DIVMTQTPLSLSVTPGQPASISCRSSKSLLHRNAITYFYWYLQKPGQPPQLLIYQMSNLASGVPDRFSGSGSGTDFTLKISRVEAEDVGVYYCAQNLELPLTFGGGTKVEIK
0.35
